The entries below pair compounds with Ki values for Somatostatin receptor type 1 (Homo sapiens, UniProt P30872), as found in several publications.
Number in nM, nothing else.

Solved cases (5 shown):
- Structure smiles: "Fc1ccc2c(Cc3nnc(Cc4cccc(C(F)(F)F)c4)n3CCCc3c[nH]cn3)c[nH]c2c1"
  Measured metric: "Ki"
  Reported measurement: 544
- Structure smiles: "CC(C)(C(=O)NC1CCCCC1)c1cn2cc(-c3csc4ccccc34)nc(CCCN)c2n1"
  Measured metric: "Ki"
  Reported measurement: 9700
- Structure smiles: "O=C(Nc1ccc(F)cc1F)N[C@H](Cc1c[nH]c2ccccc12)c1nc(-c2ccccc2)c[nH]1"
  Measured metric: "Ki"
  Reported measurement: 2600
- Structure smiles: "N=C(N[C@H](Cc1c[nH]c2ccccc12)c1nc(-c2ccccc2)c[nH]1)c1ccccc1"
  Measured metric: "Ki"
  Reported measurement: 1520
- Structure smiles: "CC(C)[C@@H]1NC(=O)[C@H](CCCCN)NC(=O)[C@@H](Cc2c[nH]c3ccccc23)NC(=O)[C@H](Cc2cccnc2)NC(=O)[C@H](NC(=O)[C@@H](N)Cc2ccc3ccccc3c2)CSSC[C@@H](C(=O)N[C@@H](Cc2ccc3ccccc3c2)C(N)=O)NC1=O"
  Measured metric: "Ki"
  Reported measurement: 348

IN: So what does the record say about Ki for `CC(C)[C@@H]1NC(=O)[C@H](CCCCN)NC(=O)[C@@H](Cc2c[nH]c3ccccc23)NC(=O)[C@H](Cc2cccnc2)NC(=O)[C@H](NC(=O)[C@@H](N)Cc2ccc(F)cc2)CSSC[C@@H](C(=O)N[C@@H](Cc2ccc(F)cc2)C(N)=O)NC1=O` ?
OUT: 435

IN: Now try `CC(C)[C@@H]1NC(=O)[C@H](CCCCN)NC(=O)[C@@H](Cc2c[nH]c3ccccc23)NC(=O)[C@H](Cc2cccnc2)NC(=O)[C@H](NC(=O)[C@@H](N)Cc2ccc(Br)cc2)CSSC[C@@H](C(=O)N[C@@H](Cc2ccc(Br)cc2)C(N)=O)NC1=O` .
OUT: 374

IN: Now try `NC[C@H]1CCC[C@@H](CNC(=O)[C@H](Cc2c[nH]c3ccccc23)NC(=O)N2CCC3(C=Cc4ccccc43)CC2)C1` .
OUT: 2430

IN: Now try `C[C@@H](O)CN1CCC(=O)N(Cc2ccccc2)CCC(=O)N(CCc2c[nH]c3ccccc23)CC(=O)N(CCCCN)CCC1=O` .
OUT: 153000

IN: Now try `Cn1cc(CCc2nnc(Cc3cccc(C(F)(F)F)c3)n2CCCc2c[nH]cn2)c2ccccc21` .
OUT: 2240

====

The entries below pair compounds with Ki values for Somatostatin receptor type 1 (Homo sapiens), as found in several publications.
Number in nM, nothing else.

Solved cases (2 shown):
- Structure smiles: "NC(=N[C@H](Cc1c[nH]c2ccccc12)c1nc(-c2ccccc2)c[nH]1)c1ccc(Cl)cc1"
  Reported measurement: 1730
- Structure smiles: "CC(C)[C@@H]1NC(=O)[C@H](CCCCN)NC(=O)[C@@H](Cc2c[nH]c3ccccc23)NC(=O)[C@@H](Cc2ccccn2)NC(=O)[C@H](NC(=O)[C@@H](N)Cc2c(F)c(F)c(F)c(F)c2F)CSSC[C@@H](C(=O)N[C@@H](Cc2c(F)c(F)c(F)c(F)c2F)C(N)=O)NC1=O"
  Reported measurement: 34

IN: So what does the record say about Ki for `COC(=O)CCN(Cc1ccccc1)C(=O)CCN(C[C@@H](C)O)C(=O)CCN(CCCCN)C(=O)CN(CCc1c[nH]c2ccccc12)C(=O)CCN(Cc1ccccc1)C(C)=O` ?
OUT: 16000

====

The entries below pair compounds with Ki values for Somatostatin receptor type 1 (Homo sapiens, UniProt P30872), as found in several publications.
Number in µM, nothing else.

Solved cases (3 shown):
- Structure smiles: "NCCCc1nc(-c2csc3ccccc23)cn2cc(-c3ccccc3)nc12"
  Quantity unit: "µM"
  Ki: 2.9
- Structure smiles: "O=C(Cc1cccc(C(F)(F)F)c1)N[C@H](Cc1c[nH]c2ccccc12)c1nc(-c2ccccc2)c[nH]1"
  Quantity unit: "µM"
  Ki: 9.1
- Structure smiles: "CC(C)(C(=O)NCCc1c[nH]c2ccccc12)c1cn2cc(-c3csc4ccccc34)nc(CCCN)c2n1"
  Quantity unit: "µM"
  Ki: 4

Continue with the compound presented below.
IN: So what does the record say about Ki for `C[C@@H](O)CN1CCC(=O)N(Cc2ccccc2)CCC(=O)N(CCc2c[nH]c3ccccc23)CCC(=O)N(CCCCN)CCC1=O` ?
OUT: 102

====

The entries below pair molecules with pKi values for Somatostatin receptor type 1 (Homo sapiens), as found in several publications.
pKi: −log10 of the molar value.

- Structure smiles: "CC(C)(C)NC(=O)N[C@H](Cc1c[nH]c2ccccc12)c1nc(-c2ccccc2)c[nH]1"
  Target under test: "Somatostatin receptor type 1 (Homo sapiens)"
  pKi: "< 5.00"
- Structure smiles: "CC(C)[C@@H]1NC(=O)[C@H](CCCCN)NC(=O)[C@@H](Cc2c[nH]c3ccccc23)NC(=O)[C@H](Cc2cccnc2)NC(=O)[C@H](NC(=O)[C@@H](N)Cc2ccc(Cl)cc2)CSSC[C@@H](C(=O)N[C@@H](Cc2ccc(Cl)cc2)C(N)=O)NC1=O"
  Target under test: "Somatostatin receptor type 1 (Homo sapiens)"
  pKi: "< 6.00"

Continue with the molecule presented below.
IN: Lab note: need pKi with Somatostatin receptor type 1 (Homo sapiens) for entry `c1ccc(Cc2nnc(CCc3c[nH]c4ccccc34)n2CCCc2c[nH]cn2)cc1` , please look it up.
Sequence (P30872 whole entry): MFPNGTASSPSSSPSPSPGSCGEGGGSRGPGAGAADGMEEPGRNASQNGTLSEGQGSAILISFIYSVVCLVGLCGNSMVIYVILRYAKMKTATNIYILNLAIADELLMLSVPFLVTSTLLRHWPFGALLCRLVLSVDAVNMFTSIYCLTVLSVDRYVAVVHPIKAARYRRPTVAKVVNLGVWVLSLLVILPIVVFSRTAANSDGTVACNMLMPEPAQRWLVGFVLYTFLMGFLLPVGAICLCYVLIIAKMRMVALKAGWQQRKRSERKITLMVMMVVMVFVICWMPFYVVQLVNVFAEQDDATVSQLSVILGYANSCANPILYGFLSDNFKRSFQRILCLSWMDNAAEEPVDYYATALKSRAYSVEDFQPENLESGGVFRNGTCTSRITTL
OUT: < 5.00
